TARGET_UNDER_TEST: human CCR8 (human, UniProt P51685 1-355)
PROCEDURE_TEXT: cell-based or functional assay
PARAMETER_MEASURED: Top plateau value (% of hCCL1 100 nM) with 5 µg/mL mAb, Protocol #3
Report field: quantity (unit follows the number).

Use the examples below as a reference point.
Input line: // fetch Top plateau value (% of hCCL1 100 nM) with 5 µg/mL mAb, Protocol #3 given entry 3-33 (antibody, V domains shown) VH: EVQLQQSGPELVKPGASVKISCKTSGYTFTEYTIHWVKQSHGESLEWVGGINPNNGNTRYDQKFKGKATLTIDKSSSPAYMELRSLTSEDSAVYYCARVARSSGSGPYAMDYWGQGTSVTVSS VL: DVVMTQTPLSLPVSLGDQASISCRCTQSLLHTNGDTYLHWYLQKPGQSPKLLIYKVSNRFSGVPDRFSGSGSGTDFTLKISRVEAEDLGVYFCSQSTHVPYTFGGGTKLEIK
Output line: 855%

Input line: // fetch Top plateau value (% of hCCL1 100 nM) with 5 µg/mL mAb, Protocol #3 given entry 3-53 (antibody, V domains shown) VH: QVQVQQSGAELARPGASVKMSCKASGYTFTTYAMHWVKQRPGQGLEWIGHINPSSGYSNYNQKFKDKATLTADKSSSTAYMQLSSLTSEDSAVYYCARSEVRRGYFDVWGAGTTVTVSS VL: DIQMTQTTSSLSASLGDRVTISCRTSQDIRNYLNWYQQKPDGTVKLLISYTSRLHSGVPSRFSGSGSGTDYSLTISNLEQEDFATYFCQQGNTLPPTFGGGTRVEIK
Output line: 948%

Below: the item to evaluate.
Input line: // fetch Top plateau value (% of hCCL1 100 nM) with 5 µg/mL mAb, Protocol #3 given entry 3-46 (antibody, V domains shown) VH: EVQLVETGGGLVQPKGSLKLSCAASGFTFNTNAMNWVRQAPGKGLEWVARIRSKSNYYATYYADSVKDRFTISRDDSQSMLYLQMNNLKTEDTAMYYCVRGREMGNYYSMDYWGQGTSVTVSS VL: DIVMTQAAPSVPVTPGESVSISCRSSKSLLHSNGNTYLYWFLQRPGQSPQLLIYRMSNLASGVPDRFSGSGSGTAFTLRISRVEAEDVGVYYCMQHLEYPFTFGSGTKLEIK
Output line: 149%

Reference for the values: patent US20260234276A1
